- test description: Neurotoxicity against ip dosed mouse
- Type: toxicity, organism-based
- protocol conditions: in vivo

>  <compound>
C[C@@H]1C[C@@H](O)[C@@]2(O)[C@@]13C[C@@H](OC(=O)[C@H]3O)[C@](C)(O)[C@@]21COC1=O [ANISATIN]

>  <unit spec>
mg/kg

>  <LD50>
1

$$$$
